Reference source for all entries: paper PMC4844355

Assay: Solubility limit
Type: physicochemical
REPORTED PROPERTY: solubility

Q: Given "Nc1ccc([N+](=O)[O-])cc1-c1nc2ccccc2n(Cc2ccccc2)c1=O" , state its recorded solubility.
A: ~25 µM

----------
Test: In vitro metabolic stability in mouse liver microsomes
Format: in vitro ADME
Details: mouse, liver microsomes
REPORTED PROPERTY: half-life at 5 μmol/L

Q: Which half-life at 5 μmol/L is listed for Nc1ccc([N+](=O)[O-])cc1-c1nc2ccccc2n(Cc2ccccc2)c1=O [CFTRact-J027] ?
A: ~21 min

----------
Assay: Pharmacokinetics in mice after bolus IP or oral administration
Assay type: in vivo, mouse
Conditions: female, CD1, mouse, serum, ip, 10 mg/kg
REPORTED PROPERTY: half-life

Q: Name the reported half-life value associated with the compound Nc1ccc([N+](=O)[O-])cc1-c1nc2ccccc2n(Cc2ccccc2)c1=O [CFTRact-J027]
A: ~16 min

----------
Assay: Pharmacokinetics in mice after bolus IP or oral administration
Type: in vivo, mouse
Settings: female, CD1, mouse, serum, po, 10 mg/kg
REPORTED PROPERTY: concentration at 30 minutes (nM)
Unit nM implied. Number only.

Q: Give its concentration at 30 minutes value. Item: "Nc1ccc([N+](=O)[O-])cc1-c1nc2ccccc2n(Cc2ccccc2)c1=O"
A: 180
